Entry source: patent US9682977B2

biological target: GST-tagged ROR gamma ligand binding domain (LBD) (Homo sapiens, UniProt P51449); construct: purchased Invitrogen; assay: TR-FRET assay for ROR gamma (Lantha Screen, co-activator peptide recruitment); assay type: biochemical; conditions: read-out: % inhibition at 10 μM; compound concentration 10 μM; TR-FRET ratio 520/495, percent of control
measured.endpoint: inhibition at 10 µM (%)
Please state the figure in %; there is no need to write the unit.

> print(dat)
                           smiles.structure  measured
1  O=C(O)c1ccc(-n2nc(Oc3ccc(Cl)cc3C(F)(F)F)c3ccccc32)c(F)c1      96.9

## Input # input compound: O=C(O)c1ccc(-n2nc(C(=O)c3c(Cl)cccc3C3CC3)c3cccnc32)cc1 ; wanted: its inhibition at 10 µM
## Output 94.6

====

inhibition at 10 µM values, listed per item
Biological target: GST-tagged ROR gamma ligand binding domain (LBD) (Homo sapiens)
Construct: purchased Invitrogen
Sequence (P51449 269-508 limits assumed): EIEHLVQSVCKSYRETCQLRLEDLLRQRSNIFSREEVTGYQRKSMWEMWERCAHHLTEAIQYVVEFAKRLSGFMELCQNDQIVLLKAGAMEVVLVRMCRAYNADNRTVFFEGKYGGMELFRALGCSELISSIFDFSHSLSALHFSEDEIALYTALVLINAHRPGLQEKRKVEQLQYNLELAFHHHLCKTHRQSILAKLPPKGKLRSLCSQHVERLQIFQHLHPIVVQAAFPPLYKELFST
Test: TR-FRET assay for ROR gamma (Lantha Screen, co-activator peptide recruitment)
Format: biochemical
Details: read-out: % inhibition at 10 μM; compound concentration 10 μM; TR-FRET ratio 520/495, percent of control
Kindly format the answer as number then unit.

Example compounds with recorded inhibition at 10 µM:
> print(dat)
                           smiles.structure    measured.endpoint  measured
1  Cc1ccccc1Oc1nn(-c2ccc(C(=O)O)cc2)c2ccccc12  inhibition at 10 µM     96.3%
2  O=C(O)c1ccc(-n2nc(C(=O)c3c(Cl)cccc3C3CC3)c3cccc(F)c32)cc1  inhibition at 10 µM     89.2%

## Input # input compound: O=C(O)c1ccc(-n2nc(Oc3c(Cl)cccc3Cl)c3ccccc32)cc1 ; wanted: its inhibition at 10 µM
## Output 99%

## Input # input compound: O=C(O)c1ccc(-n2nc(Oc3c(Cl)cccc3C(F)F)c3cccc(F)c32)c(F)c1 ; wanted: its inhibition at 10 µM
## Output 95.1%

====

target: GST-tagged ROR gamma ligand binding domain (LBD) (Homo sapiens); construct: purchased Invitrogen; test: TR-FRET assay for ROR gamma (Lantha Screen, co-activator peptide recruitment); type: biochemical; conditions: read-out: % inhibition at 10 μM; compound concentration 10 μM; TR-FRET ratio 520/495, percent of control
measured.endpoint: inhibition at 10 µM (%)
Please state the figure in %; there is no need to write the unit.

Example compounds with recorded inhibition at 10 µM:
> print(dat)
                                   compound  measured
1  O=C(O)c1ccc(-n2nc(Oc3ccccc3C(F)(F)F)c3ccccc32)cc1 [Example 2]      98.4
2  O=C(O)c1ccc(-n2nc(Oc3c(Cl)cccc3Cl)c3ccccc32)c(F)c1 [Example 6]      99.6
3  O=C(O)c1ccc(-n2nc(C(=O)c3c(Cl)cccc3C(F)(F)F)c3ccccc32)cc1 [Example 34]        92

## Input # input compound: O=C(O)c1ccc(-n2nc(C(=O)c3c(Cl)cccc3Cl)c3ccccc32)cc1 [Example 29] ; wanted: its inhibition at 10 µM
## Output 94.3

## Input # input compound: O=C(O)c1ccc(-n2nc(Oc3c(Cl)cccc3C3CC3)c3ccccc32)c(F)c1 [Example 13] ; wanted: its inhibition at 10 µM
## Output 91.7

====

target: GST-tagged ROR gamma ligand binding domain (LBD) (Homo sapiens, UniProt P51449); construct: purchased Invitrogen; assay: TR-FRET assay for ROR gamma (Lantha Screen, co-activator peptide recruitment); format: biochemical; conditions: read-out: % inhibition at 1 μM
measured.endpoint: inhibition at 1 µM (%)
Please state the figure in %; there is no need to write the unit.

> print(dat)
                           smiles.structure                              study.target  endpoint.unit  measured
1  CCCCOC(=O)c1ccc(-n2cc(C(=O)c3c(Cl)cccc3Cl)c3ccccc32)c(F)c1  GST-tagged ROR gamma ligand binding domain (LBD) (Homo sapiens, UniProt P51449)              %      5.13
2  CCCOC(=O)c1ccc(-n2cc(C(=O)c3c(Cl)cccc3Cl)c3ccccc32)c(F)c1  GST-tagged ROR gamma ligand binding domain (LBD) (Homo sapiens, UniProt P51449)              %      9.11
3  CCCCOC(=O)c1ccc(-n2cc(C(=O)c3c(Cl)cccc3Cl)c3cccc(F)c32)c(F)c1  GST-tagged ROR gamma ligand binding domain (LBD) (Homo sapiens, UniProt P51449)              %      3.55
4  O=C(O)c1ccc(-n2cc(C(=O)c3ccccc3Cl)c3ccccc32)cc1  GST-tagged ROR gamma ligand binding domain (LBD) (Homo sapiens, UniProt P51449)              %      84.9
5  CCCOC(=O)c1ccc(-n2cc(C(=O)c3c(Cl)cccc3Cl)c3cccc(F)c32)c(F)c1  GST-tagged ROR gamma ligand binding domain (LBD) (Homo sapiens, UniProt P51449)              %      6.99
6  O=C(O)c1ccc(-n2cc(C(=O)c3c(F)cccc3F)c3ccccc32)cc1  GST-tagged ROR gamma ligand binding domain (LBD) (Homo sapiens, UniProt P51449)              %        81
7  CCOC(=O)c1ccc(-n2cc(C(=O)c3c(Cl)cccc3Cl)c3cccc(F)c32)c(F)c1  GST-tagged ROR gamma ligand binding domain (LBD) (Homo sapiens, UniProt P51449)              %      0.61
8  O=C(O)c1ccc(-n2cc(C(=O)c3c(Cl)cccc3Cl)c3c(F)cccc32)c(F)c1  GST-tagged ROR gamma ligand binding domain (LBD) (Homo sapiens, UniProt P51449)              %      96.8

## Input Recall the recorded inhibition at 1 µM for O=C(O)c1ccc(-n2cc(C(=O)c3c(Cl)cccc3C(F)(F)F)c3ccccc32)c(F)c1 with GST-tagged ROR gamma ligand binding domain (LBD) (Homo sapiens, UniProt P51449) and state it.
## Output 92.2

## Input Recall the recorded inhibition at 1 µM for O=C(O)c1ccc(-n2cc(C(=O)c3c(Cl)cccc3Cl)c3ccccc32)cc1 with GST-tagged ROR gamma ligand binding domain (LBD) (Homo sapiens, UniProt P51449) and state it.
## Output 96

## Input Recall the recorded inhibition at 1 µM for CCOC(=O)c1ccc(-n2cc(C(=O)c3c(Cl)cccc3Cl)c3ccccc32)c(F)c1 with GST-tagged ROR gamma ligand binding domain (LBD) (Homo sapiens, UniProt P51449) and state it.
## Output 15.4

## Input Recall the recorded inhibition at 1 µM for CN(C)C(=O)c1ccc2c(C(=O)c3c(Cl)cccc3Cl)cn(-c3ccc(C(=O)O)cc3F)c2c1 with GST-tagged ROR gamma ligand binding domain (LBD) (Homo sapiens, UniProt P51449) and state it.
## Output 31.3

====

Target: GST-tagged ROR gamma ligand binding domain (LBD) (Homo sapiens)
Construct: purchased Invitrogen
Sequence (P51449 269-508 limits assumed): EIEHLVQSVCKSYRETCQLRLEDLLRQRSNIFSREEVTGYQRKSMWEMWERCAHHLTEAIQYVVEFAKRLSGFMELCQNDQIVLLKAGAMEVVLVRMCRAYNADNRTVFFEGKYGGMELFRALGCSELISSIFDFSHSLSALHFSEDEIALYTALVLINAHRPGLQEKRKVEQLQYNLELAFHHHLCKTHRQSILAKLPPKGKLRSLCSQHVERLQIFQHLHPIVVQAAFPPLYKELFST
Test: TR-FRET assay for ROR gamma (Lantha Screen, co-activator peptide recruitment)
Format: biochemical
Conditions: read-out: % inhibition at 10 μM
measured.endpoint: inhibition at 10 µM (%)
Please state the figure in %; there is no need to write the unit.

Example compounds with recorded inhibition at 10 µM:
> print(dat)
                           smiles.structure  measured
1  O=C(O)c1ccc(-n2cc(C(=O)c3c(Cl)cccc3C(F)(F)F)c3ccccc32)c(F)c1      92.4
2  CN(C)C(=O)c1ccc2c(C(=O)c3c(Cl)cccc3Cl)cn(-c3ccc(C(=O)O)cc3F)c2c1      33.7
3  O=C(O)c1ccc(-n2cc(C(=O)c3ccccc3Cl)c3ccccc32)cc1        96

## Input Recall the recorded inhibition at 10 µM for CCCOC(=O)c1ccc(-n2cc(C(=O)c3c(Cl)cccc3Cl)c3cccc(F)c32)c(F)c1 with GST-tagged ROR gamma ligand binding domain (LBD) (Homo sapiens) and state it.
## Output 1.02

## Input Recall the recorded inhibition at 10 µM for O=C(O)c1ccc(-n2cc(C(=O)c3c(Cl)cccc3Cl)c3ccccc32)cc1 with GST-tagged ROR gamma ligand binding domain (LBD) (Homo sapiens) and state it.
## Output 97.2

## Input Recall the recorded inhibition at 10 µM for O=C(O)c1ccc(-n2cc(C(=O)c3c(F)cccc3F)c3ccccc32)cc1 with GST-tagged ROR gamma ligand binding domain (LBD) (Homo sapiens) and state it.
## Output 94.5

## Input Recall the recorded inhibition at 10 µM for O=C(O)c1ccc(-n2cc(C(=O)c3c(Cl)cccc3Cl)c3c(F)cccc32)c(F)c1 with GST-tagged ROR gamma ligand binding domain (LBD) (Homo sapiens) and state it.
## Output 99.3

## Input Recall the recorded inhibition at 10 µM for CCOC(=O)c1ccc(-n2cc(C(=O)c3c(Cl)cccc3Cl)c3ccccc32)c(F)c1 with GST-tagged ROR gamma ligand binding domain (LBD) (Homo sapiens) and state it.
## Output 25

## Input Recall the recorded inhibition at 10 µM for CCCCOC(=O)c1ccc(-n2cc(C(=O)c3c(Cl)cccc3Cl)c3cccc(F)c32)c(F)c1 with GST-tagged ROR gamma ligand binding domain (LBD) (Homo sapiens) and state it.
## Output 2.25
